B1: PDZK1 (parent)
chain: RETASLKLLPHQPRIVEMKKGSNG

- Variants of: B1
- assay notes: protein stability index of a GFP-peptide fusion (GPS, HEK-293T) (PSI 1-6); higher = more stable;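 note: lentivirally expressed fusions sorted by FACS into six bins by GFP to DsRed ratio, PSI derived from sequencing read proportions per bin multiplied by bin number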
- measurement context: c terminus: a fixed tail appended
value type: protein stability index
Please respond with just the number, no unit label.

# count of solved cases: 3
Provide only the value of recorded protein stability index for RETASLKLLTHQPRIVEMKKGSNG
2.98

Provide only the value of recorded protein stability index for RETASLKLLPHQPRIVEMKKGSCG
3.25

Provide only the value of recorded protein stability index for RETMSLKLLPHQPRIVEMKKGSNG
3.27

Next:
Provide only the value of recorded protein stability index for RETASLKLLPHQPRIVDMKKGSNG
4.08

Provide only the value of recorded protein stability index for RETASLKLLPHQPRIVEMKHGSNG
4.4

Provide only the value of recorded protein stability index for RETASLKLLPHQPRIVEMKKGSDG
4.24

Provide only the value of recorded protein stability index for RETASLKLLPHQPRIVEIKKGSNG
4.21

Provide only the value of recorded protein stability index for RETASLKGLPHQPRIVEMKKGSNG
3.42

Provide only the value of recorded protein stability index for RECASLKLLPHQPRIVEMKKGSNG
2.35

Provide only the value of recorded protein stability index for RETASLKLLPHQPRAVEMKKGSNG
4.78

Provide only the value of recorded protein stability index for RETANLKLLPHQPRIVEMKKGSNG
2.93

Provide only the value of recorded protein stability index for RETASLKLLPHQPRINEMKKGSNG
4.88
